Consider the following compounds; for each one, report its Bliss excess.
- Tested on: MRK-nu-1 (Breast Carcinoma);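 also: after 72 h of two-drug dosing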
- Experiment Summary: Bliss excess, mean over the matrix (fraction); higher = more synergy
Give only the figure.

Recorded result, COc1cccc(OCCCN)c1-c1cc(Nc2cnc(C#N)cn2)n[nH]1 [Prexasertib] + Cc1cc2ncnn2cc1Nc1ncc2c(n1)n(C1CCOCC1)c(=O)n2C [AZD7648] (first compound max 1 µM, 7x7, partner max 10 µM) , Bliss excess: -0.0258

For C=CCn1c(=O)c2cnc(Nc3ccc(N4CCN(C)CC4)cc3)nc2n1-c1cccc(C(C)(C)O)n1 [AZD1775] + O=C(c1cc(Cc2n[nH]c(=O)c3ccccc23)ccc1F)N1CCN(C(=O)C2CC2)CC1 [Olaparib] (first compound max 1 µM, partner max 10 µM) the compound record lists Bliss excess as -0.0311

Reported Bliss excess of O=C(c1cc(Cc2n[nH]c(=O)c3ccccc23)ccc1F)N1CCN(C(=O)C2CC2)CC1 [Olaparib] + COc1nnc2ccc(N3CCC(c4ccc(OCCN5CCN(C)C(=O)[C@H]5C)cc4)CC3)nn12 [AZD5153] (first compound max 10 µM, 7x7, partner max 1 µM) : 0.0665

Note to self: Bliss excess recorded for COc1nnc2ccc(N3CCC(c4ccc(OCCN5CCN(C)C(=O)[C@H]5C)cc4)CC3)nn12 [AZD5153] + CC1(C)CCC(CN2CCN(c3ccc(C(=O)NS(=O)(=O)c4ccc(NCC5CCOCC5)c([N+](=O)[O-])c4)c(Oc4cnc5[nH]ccc5c4)c3)CC2)=C(c2ccc(Cl)cc2)C1 [Venetoclax] (first compound max 1 µM, 7x7, partner max 1 µM) was -0.0537
